- System: HL-60
- assay method text: Cytotoxicity against human HL60 cells after 72 hrs by MTT assay
- Assay type: functional, cell-based
- measurement context: HL-60, 72 h
assay metric: IC50 (µM)
Enter your answer as a number in µM; do not include the unit.

Example molecules with recorded IC50:
CC[C@@]1(O)C(=O)OCc2c1cc1n(c2=O)Cc2cc3cc(O)ccc3nc2-1 [HYDROXYCAMPTOTHECIN] : 0.25
C[C@@H]1O[C@@H](O[C@H]2[C@H](O[C@H]3CC[C@]4(C)[C@H]5CC=C6[C@@H]7CC(C)(C)CC[C@]7(C(=O)O)CC[C@@]6(C)[C@]5(C)CC[C@H]4C3(C)C)OC[C@H](O)[C@@H]2O)[C@H](O)[C@H](O[C@@H]2OC[C@@H](O)[C@H](O)[C@H]2O)[C@H]1O : 3.4
CC1(C)CC[C@]2(C(=O)O)CC[C@]3(C)C(=CC[C@@H]4[C@@]5(C)CC[C@H](O[C@@H]6O[C@H](CO)[C@@H](O)[C@H](O)[C@H]6O[C@@H]6O[C@H](CO)[C@@H](O)[C@H](O)[C@H]6O)C(C)(C)[C@@H]5CC[C@]43C)[C@@H]2C1 [ACUTOSIDE A] : 12.5
C[C@@H]1O[C@@H](O[C@H]2[C@H](O[C@H]3CC[C@]4(C)[C@H]5CC=C6[C@@H]7CC(C)(C)CC[C@]7(C(=O)O)CC[C@@]6(C)[C@]5(C)CC[C@H]4C3(C)C)O[C@H](CO)[C@@H](O)[C@@H]2O)[C@H](O)[C@H](O)[C@H]1O : 12.9
C[C@@H]1O[C@@H](O[C@H]2[C@H](O[C@H]3CC[C@]4(C)[C@H]5CC=C6[C@@H]7CC(C)(C)CC[C@]7(C(=O)O)CC[C@@]6(C)[C@]5(C)CC[C@H]4C3(C)C)OC[C@@H](O)[C@@H]2O)[C@H](O)[C@H](O[C@@H]2O[C@H](CO)[C@@H](O[C@@H]3O[C@H](CO)[C@@H](O)[C@H](O)[C@H]3O)[C@H](O)[C@H]2O)[C@H]1O : 2.5

Ask | Find the recorded IC50 belonging to CC1(C)CC[C@]2(C(=O)O)CC[C@]3(C)C(=CC[C@@H]4[C@@]5(C)CC[C@H](O[C@@H]6O[C@H](CO)[C@H](O)[C@H](O)[C@H]6O[C@@H]6O[C@H](CO)[C@@H](O)[C@H](O)[C@H]6O)C(C)(C)[C@@H]5CC[C@]43C)[C@@H]2C1 and report it.
Reply | 10.1

Ask | Next molecule up: C[C@@H]1O[C@@H](O[C@H]2[C@H](O[C@H]3CC[C@]4(C)[C@H]5CC=C6[C@@H]7CC(C)(C)CC[C@]7(C(=O)O)CC[C@@]6(C)[C@]5(C)CC[C@H]4C3(C)C)OC[C@@H](O)[C@@H]2O)[C@H](O)[C@H](O[C@@H]2O[C@H](CO)[C@@H](O)[C@H](O)[C@H]2O)[C@H]1O
Reply | 4.6

Ask | Next molecule up: C[C@@H]1O[C@@H](O[C@H]2[C@H](O[C@H]3CC[C@]4(C)[C@H]5CC=C6[C@@H]7CC(C)(C)CC[C@]7(C(=O)O)CC[C@@]6(C)[C@]5(C)CC[C@H]4C3(C)C)OC[C@H](O)[C@@H]2O)[C@H](O)[C@H](O[C@@H]2OC[C@@H](O[C@@H]3O[C@H](CO)[C@@H](O)[C@H](O)[C@H]3O)[C@H](O)[C@H]2O)[C@H]1O
Reply | 4.2

Ask | Next molecule up: C[C@@H]1O[C@@H](O[C@H]2[C@H](O[C@H]3CC[C@]4(C)[C@H]5CC=C6[C@@H]7CC(C)(C)CC[C@]7(C(=O)O[C@@H]7O[C@H](CO[C@@H]8O[C@H](CO)[C@@H](O[C@@H]9O[C@@H](C)[C@H](O)[C@@H](O)[C@H]9O)[C@H](O)[C@H]8O)[C@@H](O)[C@H](O)[C@H]7O)CC[C@@]6(C)[C@]5(C)CC[C@H]4C3(C)C)OC[C@@H](O)[C@@H]2O)[C@H](O)[C@H](O)[C@H]1O
Reply | 3.2
